Each record here notes measured IC50.
# assay method text: Inhibition of Mycobacterium tuberculosis TMPK expressed in Escherichia coli BLi5 using dTMP as substrate in presence of ATP by spectrophotometric based LDH/PK/nucleoside diphosphate kinase enzyme coupled assay
All answers are understood in µM, so give the number only.

>  <smiles repr>
Cc1cccc(CN2CCC(n3cc(C)c(=O)[nH]c3=O)CC2)c1

>  <measurement unit>
µM

>  <measured result>
72

$$$$

Query string: State the recorded IC50 for this entry: `Cc1cn(C2CCN(Cc3ccnc4ccccc34)CC2)c(=O)[nH]c1=O`
Result string: 25

Query string: # IC50 lookup, item `Cc1cn(C2CCN(Cc3ccc(N(C)C)cc3)CC2)c(=O)[nH]c1=O`
Result string: 328

Query string: Item `Cc1cn(C2CCN(Cc3cc(Oc4ccccc4)c4ccc(Cl)cc4n3)CC2)c(=O)[nH]c1=O` has what recorded IC50?
Result string: 1.8

Query string: Can you share its IC50? I mean this molecule: `Cc1cn(C2CCN(Cc3cc4ccccc4o3)CC2)c(=O)[nH]c1=O`
Result string: 23

Query string: Which IC50 is listed for `Cc1cn(C2CN(CCc3cccc(Oc4ccccc4)c3)C2)c(=O)[nH]c1=O` ?
Result string: 1910

Query string: May I ask what IC50 has been recorded for `Cc1cn(C2CCN(Cc3ccc(C#N)cc3)CC2)c(=O)[nH]c1=O` ?
Result string: 35

Query string: Suppose we examine the molecule `Cc1cn(C2CN(Cc3ccc(Oc4ccccc4)cc3)C2)c(=O)[nH]c1=O` ; what IC50 value has been reported?
Result string: 832

Query string: Give its IC50 value. Item: `COc1ccc(CN2CCC(n3cc(C)c(=O)[nH]c3=O)CC2)cc1`
Result string: 113

Query string: Which IC50 reading was recorded for the molecule `Cc1cn(C2CCN(Cc3cnc4ccccc4c3)CC2)c(=O)[nH]c1=O` ?
Result string: 17

Query string: # lookup: IC50 of `Cc1cn(C2CCN(Cc3ccccc3)CC2)c(=O)[nH]c1=O`
Result string: 138

Query string: # input molecule: `Cc1cn(C2CCN(Cc3cncc4ccccc34)CC2)c(=O)[nH]c1=O` ; wanted: its IC50
Result string: 25

Query string: Recorded IC50 for `Cc1cn(C2CCN(Cc3ccncc3)CC2)c(=O)[nH]c1=O` , please?
Result string: 49

Query string: Find the recorded IC50 belonging to `Cc1cn(C2CCN(Cc3ccc(Oc4ccccc4)cc3)CC2)c(=O)[nH]c1=O` and report it.
Result string: 29

Query string: Given `Cc1cn(C2CCN(Cc3ccoc3)CC2)c(=O)[nH]c1=O` , state its recorded IC50.
Result string: 254

Where do the numbers come from? From ChEMBL document CHEMBL4020841.
